Please provide measured Hill slope for the entries that follow.
tested-on: SARS-CoV-2 NSP3 macrodomain (Mac1) (Severe acute respiratory syndrome coronavirus 2, UniProt P0DTD1)
test: biochemical
Format: binding
condition-description: HTRF dose-response fit, Mac1
Output: the number by itself.

Query: State the recorded Hill slope for this entry: O=S1(=O)CCCC(O)(CNc2ncnc3[nH]ccc23)C1 (centres unmarked)
Response: 1.2

Query: # query: Hill slope of entry O[C@H]1CC[C@H]2CCN(c3ncnc4[nH]ccc34)[C@H]21
Response: 1.2

Query: Fill blank: measured Hill slope of the molecule OCC1CC=CCN1c1ncnc2[nH]ccc12 (centres unmarked) is ____.
Response: 1.3

Query: Report Hill slope for O=C(O)C(F)(F)F.OC1([C@H]2CCCN2c2ncnc3[nH]ccc23)Cc2ccccc2C1 please.
Response: 1.1

Query: Please give the measured Hill slope for this molecule: C[C@H]1CC[C@H](CO)N(c2ncnc3[nH]ccc23)C1 (racemic)
Response: 1.1

* * *

Can you tell me Refined ligand occupancy (%) for the items I'm about to list?
tested-on: SARS-CoV-2 NSP3 macrodomain (Mac1), P43 crystal form (Severe acute respiratory syndrome coronavirus 2)
Type: binding
Note: a bare number is incomplete; add the unit.

Query: Return reported Refined ligand occupancy (%); argument: CNc1ccc(NS(=O)(=O)c2cc3cccc(C)c3s2)cn1 [AVI-345]
Response: 52%

Query: Entry under review: Cc1c[nH]c2ncnc(NCC3(O)CCC(C)CC3)c12 (stereo not shown) [AVI-4331] . Reported Refined ligand occupancy (%)?
Response: 54%

Query: Item under review: CC(O)C(C)Nc1ncnc2[nH]ccc12 (stereo not shown) [AVI-5158] . Reported Refined ligand occupancy (%)?
Response: 34%

Query: # get_value(readout='Refined ligand occupancy (%)', item= CC1CCCC(O)(CNc2ncnc3[nH]ccc23)C1 (stereo not shown) [AVI-4307] )
Response: 34%

Query: Name the reported Refined ligand occupancy (%) value associated with the compound CC(C)(O)C1N(c2ncnc3[nH]ccc23)CCC1(C)C (stereo not shown) [AVI-4126]
Response: 40%

Query: For the compound OC1(CNc2ncnc3[nH]ccc23)CCC(F)(F)CC1 [AVI-4308] , what Refined ligand occupancy (%) is on record?
Response: 30%

Query: Which Refined ligand occupancy (%) is reported for this compound? O=C(O)C(F)(F)F.OC[C@H](Cc1ccc(O)cc1)Nc1ncnc2[nH]ccc12 [AVI-4066]
Response: 50%

Query: Which Refined ligand occupancy (%) value is on record for OC1(CNc2ncnc3[nH]ccc23)COC2CC1C2 (stereo not shown) [AVI-4313] ?
Response: 38%

Query: Sample Cc1c[nH]c2ncnc(NCC3(O)CCOCC3)c12 [AVI-4194] — what was its Refined ligand occupancy (%)?
Response: 18%

Query: I am curious: what Refined ligand occupancy (%) value has been reported for CC(C)n1nnnc1SCc1c(C(=O)O)sc2cccc(F)c12 [AVI-291] ?
Response: 68%

* * *

tested-on: SARS-CoV-2 NSP3 macrodomain (Mac1), P43 crystal form (Severe acute respiratory syndrome coronavirus 2, UniProt P0DTD1)
Format: binding
condition-description: occupancy estimate from PanDDA 1-BDC
Could you please report measured 2*(1-BDC) (%) for the items listed next?
Write the value in % as a bare number.

Query: Entry Nc1nnc(SCCn2c(=O)oc3ccccc32)s1 has what 2*(1-BDC) (%)?
Response: 12

Query: Could you tell me which 2*(1-BDC) (%) is on file for OCC(Cc1ccoc1)Nc1ncnc2[nH]ccc12 (stereo not drawn) ?
Response: 42

Query: Need 2*(1-BDC) (%), item c1ccc(-n2nnnc2CSc2nnc(NC3CC3)s2)cc1
Response: 22

Query: GET /values?readout=2*(1-BDC) (%)&item= OCC(CC1CCOC1)Nc1ncnc2[nH]ccc12 (stereo not drawn)
Response: 34

Query: Look up 2*(1-BDC) (%): CCC(C)(CO)Nc1ncnc2[nH]ccc12 (stereo not drawn)
Response: 32

Query: Recorded 2*(1-BDC) (%) of CC1CCN(C(=O)c2ccc3c(c2)nc(CO)n3C)CC1C(=O)O (stereo not drawn) , please.
Response: 50
